System: human ovarian cancer cell line A2780
TEST_DESCRIPTION: Growth inhibition assay (CellTiter 96 Non-Rad Cell Proliferation Assay)
Format: cell-based
CONDITION_DESCRIPTION: Homo sapiens, A2780, 72 h, Table 2, tetrahydroquinoline-containing members
pIC50: −log10 of the molar value.
OBSERVABLE: pIC50

Example entries and their recorded answers appear below.
| MOLECULE | OBS_VALUE |
| --- | --- |
| CC1(C)CCNc2ccc(NC(=O)Nc3ccc([N+](=O)[O-])cc3)cc21 | 5.16 |
| CC1(C)CC(C)(C)c2cc(NC(=S)Nc3ccc([N+](=O)[O-])cc3)ccc2S1 [SHetA2, reference compound] | 5.50 |
| CN1c2ccc(NC(=O)Nc3ccc(C(F)(F)F)cc3)cc2C(C)(C)C(=O)C1(C)C [Compound 11c] | 5.59 |
| CN1c2ccc(NC(=S)Nc3ccc(C(F)(F)F)cc3)cc2C(C)(C)C(O)C1(C)C (stereo not drawn) [Compound 13d] | 5.12 |
| CN1c2ccc(NC(=S)Nc3ccc([N+](=O)[O-])cc3)cc2C(C)(C)C(=O)C1(C)C [Compound 11b] | 5.36 |

1 = CN1c2ccc(NC(=O)Nc3ccc(C(F)(F)F)cc3)cc2C(C)(C)C(O)C1(C)C (stereo not drawn) [Compound 13c]
2 = CN1c2ccc(NC(=O)Nc3ccc(OC(F)(F)F)cc3)cc2C(C)(C)C(=O)C1(C)C [Compound 11e]
Which one would you say has the larger pIC50 value: 1 , or 2 ? Please reply using the label of the selected record.
2
(2: 5.62, 1: 5.17)

A = CN1c2ccc(NC(=S)Nc3ccc([N+](=O)[O-])cc3)cc2C(C)(C)CC1(C)C
B = CN1c2ccc(NC(=S)Nc3ccc(OC(F)(F)F)cc3)cc2C(C)(C)C(O)C1(C)C (stereo not drawn) [Compound 13f]
C = CN1c2ccc(NC(=O)Nc3ccc(N)cc3)cc2C(C)(C)C(=O)C1(C)C [Compound 11g]
Highest pIC50 first, then in falling order down to the smallest. A complete answer lists every label in the requested sequence.
A, C, B
